Hey, just so you know, these numbers are from paper PMC9490236.

# settings: PAMPA
Where a SMILES comes first, the peptide text is derived from it. [ ]: non-standard residue; d: D form. ξ: configuration not given here. dIle(3ξ) = CCC(C)[C@@H](N)C(=O)O; dNMeL = CN[C@H](CC(C)C)C(=O)O; dNMeA = CN[C@H](C)C(=O)O

- compound: "CC[C@@H](C)[C@H]1NC(=O)[C@H]2CCCN2C(=O)[C@@H]2CCCN2C(=O)[C@H](C(C)C)NC(=O)[C@@H](C(C)C)NC(=O)[C@@H]2CCCN2C(=O)[C@H]2CCCN2C(=O)[C@@H](C)NC1=O [Design D8.11, DALA DPRO PRO DVAL VAL PRO DPRO DILE] (cyclo([dV]VP[dP][dI][dA][dP]P))"
  PAMPA_R1: "BQL"
- compound: "CC[C@@H](C)[C@H]1NC(=O)[C@@H](CC(C)C)NC(=O)[C@@H](CC(C)C)N(C)C(=O)[C@@H]2CCCN2C(=O)[C@@H](C(C)C)NC(=O)[C@@H](CC(C)C)NC(=O)[C@@H](CC(C)C)N(C)C(=O)[C@@H]2CCCN2C1=O [Design D8.3.p2, DLEU DVAL PRO *DLEU DLEU DILE PRO *DLEU] (cyclo(P[dNMeL][dL][dI]P[dNMeL][dL][dV]))"
  PAMPA_R1: "BQL"
- compound: "CCC(C)[C@H]1NC(=O)[C@H](CC(C)C)NC(=O)[C@@H](C)N(C)C(=O)[C@@H]2CCCN2C(=O)[C@H](C)NC(=O)[C@@H](CC(C)C)NC(=O)[C@H]2CCCN2C(=O)[C@H](C(C)C)NC(=O)[C@@H](CC(C)C)N(C)C1=O (stereo partly drawn) [Design D9.30] (cyclo(AP[dNMeA]L[dIle(3ξ)][dNMeL]V[dP][dL]))"
  PAMPA_R1: "1.58E-06"

====

# settings: PAMPA
Where a SMILES comes first, the peptide text is derived from it. [ ]: non-standard residue; d: D form. NMeL = CN[C@@H](CC(C)C)C(=O)O; dNMeL = CN[C@H](CC(C)C)C(=O)O; NMeA = CN[C@@H](C)C(=O)O; dNMeA = CN[C@H](C)C(=O)O
Reported PAMPA_R3 is given for each of the following molecules.
Returns: the value as a bare number; no unit string appended.

- molecule: "CC(C)C[C@@H]1C(=O)N[C@H](CC(C)C)C(=O)N2CCC[C@@H]2C(=O)N2CCC[C@@H]2C(=O)N(C)[C@@H](CC(C)C)C(=O)N[C@H](CC(C)C)C(=O)N2CCC[C@@H]2C(=O)N2CCC[C@H]2C(=O)N1C [Design D8.32, DPRO DPRO *LEU DLEU DPRO PRO *DLEU DLEU] (cyclo([dNMeL][dL][dP][dP][NMeL][dL][dP]P))"
  PAMPA_R3: "5.16E-06"
- molecule: "CC[C@@H](C)[C@H]1NC(=O)[C@H](CC(C)C)N(C)C(=O)[C@H]2CCCN2C(=O)[C@H](CC(C)C)NC(=O)[C@H](Cc2ccccc2)N(C)C(=O)[C@H](CC(C)C)N(C)C(=O)[C@@H](C(C)C)NC(=O)[C@H](C)NC(=O)[C@H]2CCCN2C(=O)[C@@H]2CCCN2C1=O [Design D10.17.p2]"
  PAMPA_R3: "2.91E-06"
- molecule: "CC[C@@H](C)[C@H]1NC(=O)[C@@H](Cc2ccccc2)NC(=O)[C@@H](CC(C)C)NC(=O)[C@@H]2CCCN2C(=O)[C@H]2CCCN2C(=O)[C@H](CC(C)C)NC(=O)[C@H](CC(C)C)NC(=O)[C@@H](CC(C)C)N(C)C(=O)[C@H](C)N(C)C(=O)[C@H]2CCCN2C1=O [Design D10.34] (cyclo([dL][dF][dI][dP][NMeA][dNMeL]LL[dP]P))"
  PAMPA_R3: "4.57E-06"
- molecule: "CC(C)C[C@@H]1C(=O)N[C@H](C)C(=O)N[C@@H](C(C)C)C(=O)N2CCC[C@@H]2C(=O)N[C@H](C(C)C)C(=O)N2CCC[C@@H]2C(=O)N2CCC[C@H]2C(=O)N[C@H](C)C(=O)N(C)[C@H](CC(C)C)C(=O)N1C [Design D9.29] (cyclo([dA][dNMeL][dNMeL][dA]V[dP][dV][dP]P))"
  PAMPA_R3: "1.19E-06"
- molecule: "CC(C)C[C@@H]1NC(=O)[C@@H]2CCCN2C(=O)[C@@H](Cc2ccccc2)NC(=O)[C@H](C)N(C)C(=O)[C@H](CC(C)C)NC(=O)[C@H](CC(C)C)N(C)C(=O)[C@@H](C)NC(=O)[C@@H](CC(C)C)NC(=O)[C@@H]2CCCN2C(=O)[C@@H](Cc2ccccc2)NC1=O (single isomer, unassigned) [Design D10.2.p1]"
  PAMPA_R3: "3.88E-06"

API: the following record is the query input.
Tell me the measured PAMPA_R3 of CC[C@H](C)[C@@H]1NC(=O)[C@@H](CC(C)C)NC(=O)[C@@H]2CCCN2C(=O)[C@@H]2CCCN2C(=O)[C@@H](CC(C)C)NC(=O)[C@@H]2CCCN2C(=O)[C@H]2CCCN2C(=O)[C@@H](C(C)C)NC(=O)[C@@H](C)N(C)C1=O [Design D9.14] (cyclo([dL]PP[dL]I[dNMeA][dV][dP]P)) , please.
5.63E-07

====

# Tested on: Caco-2 cells
# assay procedure: Caco-2 permeability assay (apical to basolateral)
# Format: in vitro ADME, human
# settings: Caco-2
Where a SMILES comes first, the peptide text is derived from it. [ ]: non-standard residue; d: D form. dNMeI = CC[C@@H](C)[C@@H](NC)C(=O)O; NMeL = CN[C@@H](CC(C)C)C(=O)O; dNMeL = CN[C@H](CC(C)C)C(=O)O; NMeA = CN[C@@H](C)C(=O)O; dNMeA = CN[C@H](C)C(=O)O
reported metric: Caco_R1
Answer field: number only, no words.

Consider the worked cases shown below.
- compound: "CC[C@H](C)[C@@H]1NC(=O)[C@@H](CC(C)C)NC(=O)[C@@H](C)N(C)C(=O)[C@H](Cc2ccccc2)NC(=O)[C@@H](CC(C)C)NC(=O)[C@@H](C)N(C)C(=O)[C@@H]2CCCN2C(=O)[C@H](C(C)C)NC(=O)[C@H]2CCCN2C(=O)[C@@H]2CCCN2C1=O [Design D10.31] (cyclo(F[dNMeA][dL]IP[dP]VP[dNMeA][dL]))"
  Caco_R1: 1.93
- compound: "CC[C@@H](C)[C@H]1NC(=O)[C@H](Cc2ccccc2)NC(=O)[C@@H](CC(C)C)N(C)C(=O)[C@@H]2CCCN2C(=O)[C@@H](C(C)C)NC(=O)[C@@H](C)N(C)C(=O)[C@H]2CCCN2C(=O)[C@@H](CC(C)C)NC(=O)[C@H](CC(C)C)NC(=O)[C@@H]2CCCN2C1=O [Design D10.30] (cyclo(F[dI]PL[dL][dP][dNMeA][dV]P[dNMeL]))"
  Caco_R1: 15.3
- compound: "CC[C@H](C)[C@@H]1NC(=O)[C@@H](C(C)C)NC(=O)[C@@H](CC(C)C)N(C)C(=O)[C@H]2CCCN2C(=O)[C@@H](CC(C)C)NC(=O)[C@@H](CC(C)C)N(C)C(=O)[C@H](CC(C)C)NC(=O)[C@H]2CCCN2C(=O)[C@H](C)N(C)C(=O)[C@H]2CCCN2C1=O [Design D10.41] (cyclo(I[dP][NMeA][dP]L[dNMeL][dL][dP][dNMeL][dV]))"
  Caco_R1: 4.42

Okay, now this compound:
Any idea what Caco_R1 was measured for CC[C@@H](C)[C@H]1NC(=O)[C@H]([C@@H](C)CC)NC(=O)[C@H](CC(C)C)N(C)C(=O)[C@H]2CCCN2C(=O)[C@@H]([C@H](C)CC)NC(=O)[C@@H]([C@H](C)CC)N(C)C(=O)[C@H](CC(C)C)NC(=O)[C@H]2CCCN2C(=O)[C@@H]2CCCN2C(=O)[C@H](C(C)C)NC(=O)[C@H]2CCCN2C1=O [Design D11.3] (cyclo(I[dI][dP]VP[dP]L[dNMeI][dI][dP][NMeL])) ?
7.29

====

# settings: PAMPA
Where a SMILES comes first, the peptide text is derived from it. [ ]: non-standard residue; d: D form. dNMeI = CC[C@@H](C)[C@@H](NC)C(=O)O; NMeF = CN[C@@H](Cc1ccccc1)C(=O)O; NMeL = CN[C@@H](CC(C)C)C(=O)O; dNMeL = CN[C@H](CC(C)C)C(=O)O; dNMeV = CN[C@@H](C(=O)O)C(C)C; NMeV = CN[C@H](C(=O)O)C(C)C; dNMeA = CN[C@H](C)C(=O)O
reported metric: PAMPA_R3
Please reply with the value in numeric form only.

- molecule: "CC[C@H](C)[C@@H]1NC(=O)[C@@H]2CCCN2C(=O)[C@H]2CCCN2C(=O)[C@@H](CC(C)C)NC(=O)[C@@H](CC(C)C)N(C)C(=O)[C@@H]2CCCN2C(=O)[C@H](Cc2ccccc2)N(C)C(=O)[C@@H](Cc2ccccc2)NC1=O [Design D8.14, PRO ILE DPHE*PHE PRO *DLEU DLEU DPRO] (cyclo(I[dF][NMeF]P[dNMeL][dL][dP]P))"
  experimental value: "7.14E-07"
- molecule: "CC(C)C[C@@H]1NC(=O)[C@@H](Cc2ccccc2)NC(=O)[C@@H](CC(C)C)N(C)C(=O)[C@@H]2CCCN2C(=O)[C@H](C)NC(=O)[C@@H](CC(C)C)N(C)C(=O)[C@@H]2CCCN2C(=O)[C@H](CC(C)C)N(C)C(=O)[C@H](CC(C)C)N(C)C(=O)[C@H](C(C)C)NC1=O [Design D10.20] (cyclo(AP[dNMeL][dF]LV[NMeL][NMeL]P[dNMeL]))"
  experimental value: "3.37E-06"
- molecule: "CC[C@@H](C)[C@H]1NC(=O)[C@@H](CC(C)C)N(C)C(=O)[C@@H]2CCCN2C(=O)[C@@H]([C@H](C)CC)NC(=O)[C@@H](CC(C)C)NC(=O)[C@@H](CC(C)C)N(C)C(=O)[C@@H]2CCCN2C(=O)[C@@H](C(C)C)NC1=O [Design D8.8, PRO *DLEU DLEU DILE PRO *DLEU DILE DVAL] (cyclo(P[dNMeL][dI][dV]P[dNMeL][dL][dI]))"
  experimental value: "3.47E-06"
- molecule: "CC(C)C[C@@H]1C(=O)N[C@H](C)C(=O)N2CCC[C@H]2C(=O)N(C)[C@H](CC(C)C)C(=O)N[C@@H](C)C(=O)N(C)[C@@H](CC(C)C)C(=O)N(C)[C@H](C(C)C)C(=O)N[C@H](Cc2ccccc2)C(=O)N2CCC[C@@H]2C(=O)N2CCC[C@H]2C(=O)N1C [Design D10.18] (cyclo([dNMeL][dA]P[dNMeL]A[NMeL][dNMeV][dF][dP]P))"
  experimental value: "1.49E-07"
- molecule: "CC[C@H](C)[C@@H]1NC(=O)[C@@H]2CCCN2C(=O)[C@H]2CCCN2C(=O)[C@@H](Cc2ccccc2)NC(=O)[C@@H](CC(C)C)N(C)C(=O)[C@H](C(C)C)NC(=O)[C@@H](CC(C)C)NC(=O)[C@@H]2CCCN2C(=O)[C@H]2CCCN2C(=O)[C@@H](C)N(C)C(=O)[C@H](C(C)C)N(C)C1=O [Design D11.21] (cyclo(I[NMeV][dNMeA][dP]P[dL]V[dNMeL][dF][dP]P))"
  experimental value: "2.17E-07"
- molecule: "CC[C@@H](C)[C@H]1NC(=O)[C@H]([C@@H](C)CC)NC(=O)[C@H](CC(C)C)N(C)C(=O)[C@H]2CCCN2C(=O)[C@@H]([C@H](C)CC)NC(=O)[C@@H]([C@H](C)CC)N(C)C(=O)[C@H](CC(C)C)NC(=O)[C@H]2CCCN2C(=O)[C@@H]2CCCN2C(=O)[C@H](C(C)C)NC(=O)[C@H]2CCCN2C1=O [Design D11.3] (cyclo(I[dI][dP]VP[dP]L[dNMeI][dI][dP][NMeL]))"
  experimental value: "1.10E-06"

From here, focus on the item given below.
// query PAMPA_R3 value for entry CC(C)C[C@@H]1NC(=O)[C@@H](C)N(C)C(=O)[C@@H](CC(C)C)N(C)C(=O)[C@@H]2CCCN2C(=O)[C@H]2CCCN2C(=O)[C@@H](C)NC(=O)[C@@H]2CCCN2C(=O)[C@H]2CCCN2C(=O)[C@@H](CC(C)C)NC1=O [Design D9.27] (cyclo([dA][dP]P[dNMeL][dNMeA]L[dL][dP]P))
3.49E-08
